target: NanoLuc VHL fusion protein stably expressed in HEK 293 cells (Homo sapiens); construct: expressed in transfected cells; assay: VHL HEK-293 BRET Assay (VHL NanoBRET Target Engagement Assay); format: cell-based; settings: ratio of nanoBRET in cells to nanoBRET +Digitonin
The entries below are paired with their reported Ratio cell permeability shift.

{"columns": ["Compound", "Ratio cell permeability shift"],
 "data": [
  ["CNC(=O)[C@@H]1C[C@@H](O)CN1C(=O)[C@H](C(C)C)n1cc(-c2cccs2)nn1 [Final product from Example S28]", 0.75],
  ["CNC(=O)[C@@H]1C[C@@H](O)CN1C(=O)[C@H](C(C)C)n1cc(-c2ccccc2)nn1 [Final product from Example S34]", 1.09],
  ["CC(C)[C@@H](C(=O)N1C[C@H](O)C[C@H]1C(=O)N(C)C)n1cc(C2CC2)nn1 [Final product from Example S41]", 0.69],
  ["CNC(=O)[C@@H]1C[C@@H](O)CN1C(=O)[C@@H](n1ccnn1)C(C)(C)C [Final product from Example S4]", 1.26],
  ["CNC(=O)[C@@H]1C[C@@H](O)CN1C(=O)[C@H](C(C)C)n1cc(C2CCC2)nn1 [Final product from Example S21]", 0.86]
]}

* * *

Molecular target: NanoLuc VHL fusion protein stably expressed in HEK 293 cells (Homo sapiens, UniProt P40337)
Sequence (P40337 whole entry, the tested form may be a part): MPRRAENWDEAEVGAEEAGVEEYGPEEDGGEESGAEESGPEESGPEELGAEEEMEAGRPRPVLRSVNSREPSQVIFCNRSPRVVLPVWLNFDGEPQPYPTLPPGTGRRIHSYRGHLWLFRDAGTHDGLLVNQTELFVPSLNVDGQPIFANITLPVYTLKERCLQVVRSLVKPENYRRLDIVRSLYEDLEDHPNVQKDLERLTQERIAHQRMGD
Sequence (Q15370 whole entry partner, the tested form may be a part): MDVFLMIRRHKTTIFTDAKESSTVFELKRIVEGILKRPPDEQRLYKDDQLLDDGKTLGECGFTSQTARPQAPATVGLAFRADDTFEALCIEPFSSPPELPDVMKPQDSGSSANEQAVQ
Sequence (Q15369 whole entry partner, the tested form may be a part): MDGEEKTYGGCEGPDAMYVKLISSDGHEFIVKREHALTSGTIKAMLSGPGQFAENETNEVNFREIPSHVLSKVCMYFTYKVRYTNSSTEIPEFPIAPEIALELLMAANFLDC
Assay: VHL HEK-293 BRET Assay (VHL NanoBRET Target Engagement Assay)
Details: HEK293 cells, nanoBRET; geometric mean where more than one measurement; read-out: VHL binding in cells (HEK293 nanoBRET)
Description: The VHL NanoBRET™ Target Engagement Assay analyzes the apparent affinity of test compounds for VHL in cells by competitive displacement of a VHL NanoBRET™ tracer reversibly bound to a NanoLuc® VHL fusion protein stably expressed in the cells. […]
The entries below are paired with their reported IC50.

{"columns": ["Molecule", "Units text", "IC50"],
 "data": [
  ["CNC(=O)[C@@H]1C[C@@H](O)CN1C(=O)[C@H](C(C)C)n1cc(C2(C)CC2)nn1", "nM", 2120],
  ["CNC(=O)[C@@H]1C[C@@H](O)CN1C(=O)[C@H](C(C)C)n1cc(C2CCCC2)nn1", "nM", 3210],
  ["CC(C)NC(=O)[C@@H]1C[C@@H](O)CN1C(=O)[C@@H](n1cc(C2CC2)nn1)C(C)(C)C", "nM", 9090],
  ["CC(C)[C@@H](C(=O)N1C[C@H](O)C[C@H]1C(=O)N(C)C)n1cc(C2CC2)nn1", "nM", 49900],
  ["CNC(=O)[C@@H]1C[C@@H](O)CN1C(=O)[C@H](C(C)C)n1cc(-c2ccncc2)nn1", "nM", 1960],
  ["CNC(=O)[C@@H]1C[C@@H](O)CN1C(=O)[C@H](C(C)C)n1cc(-c2nccs2)nn1 (mixture of isomers)", "nM", 1100],
  ["CC(C)(C)[C@@H](C(=O)N1C[C@H](O)C[C@H]1C(=O)NCCF)n1cc(C2CC2)nn1", "nM", 2430],
  ["CNC(=O)[C@@H]1C[C@@H](O)CN1C(=O)[C@@H](n1cc(C2CC2)nn1)C(C)(C)C", "nM", 2990],
  ["CNC(=O)[C@@H]1C[C@@H](O)CN1C(=O)[C@H](C1CCOCC1)n1cc(C2CC2)nn1 (single isomer, unassigned)", "nM", 8040]
]}

* * *

biological target: VHL (Homo sapiens, UniProt P40337); test: VHL nanoBRET (+Digitonin)
The entries below are paired with their reported EC50.

{"columns": ["Compound", "EC50"],
 "data": [
  ["CNC(=O)[C@@H]1C[C@@H](O)CN1C(=O)[C@H](C(C)C)n1cc(-c2ncco2)nn1 (single isomer, unassigned) [Final product from Example S30]", "970 nM"],
  ["CC(C)(C)[C@@H](C(=O)N1C[C@H](O)C[C@H]1C(=O)NCC(F)(F)F)n1cc(C2CC2)nn1 [Final product from Example S14]", "5300 nM"],
  ["CNC(=O)[C@@H]1C[C@@H](O)CN1C(=O)[C@H](C1CCCCC1)n1cc(C2CC2)nn1 [Final product from Example S3]", "1670 nM"],
  ["CNC(=O)[C@@H]1C[C@@H](O)CN1C(=O)[C@H](C1CCN(S(C)(=O)=O)CC1)n1cc(C2CC2)nn1 [Final product from Example S10]", "2070 nM"],
  ["CNC(=O)[C@@H]1C[C@@H](O)CN1C(=O)[C@H](C(C)C)n1cc(-c2ccc[nH]2)nn1 (mixture of isomers) [Final product from Example S29]", "2110 nM"],
  ["CNC(=O)[C@@H]1C[C@@H](O)CN1C(=O)[C@H](C(C)C)n1cc(-c2cccs2)nn1 [Final product from Example S28]", "790 nM"]
]}

* * *

target: NanoLuc VHL fusion protein stably expressed in HEK 293 cells (Homo sapiens); construct: expressed in transfected cells; test: VHL HEK-293 BRET Assay (VHL NanoBRET Target Engagement Assay); type: cell-based; conditions: ratio of nanoBRET in cells to nanoBRET +Digitonin
Values of Ratio cell permeability shift greater than or equal to 1 map to 1 (yes); values below map to 0 (no).

{"columns": ["Compound", "Group"],
 "data": [
  ["CNC(=O)[C@@H]1C[C@@H](O)CN1C(=O)C(n1cc(C2CC2)nn1)C1(C)CCCCC1 (stereo partly drawn)", "1 (yes)"],
  ["CC(C)NC(=O)[C@@H]1C[C@@H](O)CN1C(=O)[C@@H](n1cc(C2CC2)nn1)C(C)(C)C", "1 (yes)"],
  ["CNC(=O)[C@@H]1C[C@@H](O)CN1C(=O)[C@H](C(C)C)n1cc(-c2ccco2)nn1", "0 (no)"],
  ["CNC(=O)[C@@H]1C[C@@H](O)CN1C(=O)[C@H](C(C)C)n1cc(-c2ccc(Cl)s2)nn1", "1 (yes)"],
  ["CNC(=O)[C@@H]1C[C@@H](O)CN1C(=O)[C@H](C1CCCCC1)n1cc(C2CC2)nn1", "0 (no)"]
]}

* * *

target: VHL Elongin B/C complex (Homo sapiens, UniProt P40337); construct: amino acids E55-D213 of human VHL; His6 (N); TEV-protease cleavage site (N); test: Fluorescence Polarization (FP) VHL Binding Assay; conditions: fluorescence polarization tracer competition; geometric mean where more than one measurement
Observation type: IC50

{"columns": ["Compound", "Target under test", "Observation type", "Value measured"],
 "data": [
  ["CC(C)(C)[C@@H](C(=O)N1C[C@H](O)C[C@H]1C(N)=O)n1cc(C2CC2)nn1 [Final product from Example S1]", "VHL Elongin B/C complex (Homo sapiens, UniProt P40337)", "IC50", "1170 nM"]
]}

* * *

target: NanoLuc VHL fusion protein stably expressed in HEK 293 cells (Homo sapiens); construct: expressed in transfected cells; test: VHL HEK-293 BRET Assay (VHL NanoBRET Target Engagement Assay); format: cell-based; details: HEK293 cells, nanoBRET; geometric mean where more than one measurement; read-out: VHL binding in cells (HEK293 nanoBRET)

{"columns": ["Compound", "IC50 (µM)"],
 "data": [
  ["CNC(=O)[C@@H]1C[C@@H](O)CN1C(=O)[C@H](C(C)C)n1cc(-c2ccco2)nn1 [Final product from Example S19]", 0.8],
  ["CNC(=O)[C@@H]1C[C@@H](O)CN1C(=O)[C@H](C(C)C)n1cc(-c2cccnc2)nn1 [Final product from Example S36]", 1.22],
  ["CNC(=O)[C@@H]1C[C@@H](O)CN1C(=O)[C@H](C(C)C)n1cc(-c2ccccc2)nn1 [Final product from Example S34]", 1.38]
]}

* * *

molecular target: NanoLuc VHL fusion protein stably expressed in HEK 293 cells (Homo sapiens); experiment: VHL HEK-293 BRET Assay (VHL NanoBRET Target Engagement Assay); details: HEK293 cells, nanoBRET; geometric mean where more than one measurement; read-out: VHL binding in cells (HEK293 nanoBRET)
The entries below are paired with their reported IC50.

{"columns": ["Molecule", "Result operator", "IC50, µM"],
 "data": [
  ["CNC(=O)[C@@H]1C[C@@H](O)CN1C(=O)[C@H](C(C)C)n1nnc2cc(F)c(F)cc21 (single isomer, unassigned)", "=", 1.02],
  ["CNC(=O)[C@@H]1C[C@@H](O)CN1C(=O)[C@H](C(C)C)n1cc(-c2ccc[nH]2)nn1 (mixture of isomers)", "=", 2.65],
  ["CNC(=O)[C@@H]1C[C@@H](O)CN1C(=O)[C@H](C(C)C)n1cc(-c2cncs2)nn1 (single isomer, unassigned)", "=", 0.9],
  ["CNC(=O)[C@@H]1C[C@@H](O)CN1C(=O)[C@H](C1CCN(S(C)(=O)=O)CC1)n1cc(C2CC2)nn1", "=", 10],
  ["CNC(=O)[C@@H]1C[C@@H](O)CN1C(=O)[C@H](C(C)C)n1cc(C2CC2)nn1 (single isomer, unassigned) [Isomer A from Example S11]", "=", 3],
  ["CNC(=O)[C@@H]1C[C@@H](O)CN1C(=O)[C@@H](C(C)C)n1cc(C2CC2)nn1 (single isomer, unassigned) [Isomer B from Example S11]", ">", 100]
]}
